Test system: HIF-1α
Assay: HIF-1α transactivation assay in NIH-3T3-EPO-Luc fibroblast cells
Format: cell-based
Conditions: 6 h stimulation, read-out: Potency EC50 HIF-1α
Assay metric: EC50 (µM)
The answer is to be given in µM; state only the numeric part.

Query block: What is its EC50 for HIF-1α? Entry: CC1(C)CC[C@]2(C(=O)NO)CC[C@]3(C)C(=CC[C@@H]4[C@@]5(C)CC=CC(C)(C)[C@@H]5CC[C@]43C)[C@@H]2C1 [Compound VI, Oleana-2,12-dien-N-hydroxy-28-amide]
Result block: 5
